The reported measurements were obtained from PubChem BioAssay (NCI).

# Test system: KM12 colon
# assay.notes: NCI tumour cell line growth inhibition, 48 h
// GI50 lookup, one value per entry

compound	target.or.system	property.label	observed.measurement
Cc1cc(Cl)nc(N(CCNc2ccnc3cc(Cl)ccc23)Cc2ccco2)n1	KM12 colon	GI50	2.01 µM
Cc1cc(Br)c(NC(=O)c2c(-c3c(Cl)cccc3Cl)noc2C)c(Br)c1	KM12 colon	GI50	> 100 µM
COC12C(COC(=O)NCCO)C3=C(C(=O)C(C)=C(N)C3=O)N1CC1NC12 (stereo not drawn)	KM12 colon	GI50	61.7 µM
ClCCOCCn1cnc2c(Cl)nc(Cl)nc21	KM12 colon	GI50	15.9 µM

[in] Item CCCCCCCCCCCC[C@@H](O)[C@H]1CC[C@H]([C@H](O)CC[C@H](O)[C@@H]2CC[C@@H](CCCCCCCC3=C[C@H](C)OC3=O)O2)O1 with KM12 colon - GI50?
[out] 4.26 µM

[in] Next: COc1ccc(Nc2cnc3cc(N)cc(N)c3n2)cc1
[out] 18.4 µM

[in] Follow-up item: CC(=O)NC1C(O[C@H]2C[C@H]3[C@@H]4CC=C5C[C@@H](O)CC[C@]5(C)[C@H]4CC[C@]3(C)[C@H]2[C@H](C)C(=O)CCC(C)C)OCC(O)C1O (stereo partly drawn)
[out] 6.27 µM

[in] Input CN1CCN(c2c(F)cc(NC3=C(Cl)C(=O)c4ncccc4C3=O)cc2F)CC1
[out] 16.5 µM

----------
# Test system: NCI/ADR-RES ovarian
# assay.notes: NCI tumour cell line growth inhibition, 48 h
Below: a set of entries, each annotated with reported TGI.

compound	target.or.system	observed.measurement
C=CCNC(=O)C(C)C1CCC2(C)C=CC(=O)C(C)=C2C1O (stereo unspecified)	NCI/ADR-RES ovarian	> 100 µM

API: the following record is the query input.
[in] Item COc1ccc(-c2[nH]c3ccc(OC)cc3c2C=C(C#N)C#N)cc1 has what recorded TGI?
[out] > 100 µM

----------
Each entry below carries its reported TGI.
# Tested on: SF-539 CNS
# assay.notes: NCI tumour cell line growth inhibition, 48 h

Guide cases for TGI, answers given:
molecule	TGI
Cc1ccc(S[C@@](C=O)(NC(=O)OCc2ccccc2)C(F)(F)F)cc1	70.9 µM
CCOC(=O)c1cn(CC)c(=O)n2c1nc1ccccc12	> 100 µM
Cc1c(C)c(S(=O)(=O)N(CCCCN)OCCCN)c(C)c2c1OC(C)(C)CC2	64.2 µM
O=C(c1ccccc1)[C@H]1Nc2ccc(Cl)cc2[C@H]2CCC[C@@H]12	> 100 µM
COc1ccc(C(O)c2cc3c(N)c(C(=O)Nc4cccc5ccccc45)sc3nc2C)cc1 (stereo not given)	0.0698 µM

[in] // TGI lookup, key: CC(N)(CC(O)(C(F)(F)Cl)C(F)(F)Cl)C(=O)O (stereo not given)
[out] > 10 µM

[in] What would you report for O=C(c1ccc(Cl)cc1)C1OC12C(=O)Nc1c(Cl)cc(Cl)cc12 (stereo not given) ?
[out] > 100 µM

[in] Repeat with O=C1NC(=O)C2C(=O)NC(=O)C1C2Cc1ccco1 (stereo not given)
[out] > 100 µM

[in] What about O=C(Nc1ccc(OC(F)(F)Cl)cc1)c1cnc(N2CC[C@@H](O)C2)c(-c2ccn[nH]2)c1 ?
[out] 29.1 µM

[in] Another: N#Cc1ccccc1OCCOc1ccccc1C#N
[out] > 100 µM
